Provenance of the data: ChEMBL document CHEMBL1201862

test: luciferase reporter signal suppression in cells – H4 neuroglioma cells, luminescence, dose response (AID 1990); type: functional, cell-based
Calls of active or inactive are those of the source. Rule as the data show it: actives have a measured EC50 and inactives only a lower limit.
Parameter EC50: see the listing below.
experimental readout: EC50

[
  {
    "compound": "COc1ccc(C)cc1Nc1n[n+](-c2ccccc2)c(-c2c(Cl)cccc2Cl)s1",
    "experimental readout": "EC50",
    "test value": "> 120 µM (not active)"
  },
  {
    "compound": "CCCC(=O)Nc1cc(C(=O)N2CCC3(CC2)OCCO3)ccc1S(=O)(=O)c1ccc(C)cc1",
    "experimental readout": "EC50",
    "test value": "> 120 µM (not active)"
  },
  {
    "compound": "O=C1C([N-]S(=O)(=O)c2cccs2)=C([n+]2ccc(CCCc3ccccc3)cc2)C(=O)c2ccccc21",
    "experimental readout": "EC50",
    "test value": "10.5 µM (active)"
  },
  {
    "compound": "CCOC(=O)c1cnc(-n2nc(C)cc2C)nc1NNc1cc(C)nc(-c2ccccc2)n1",
    "experimental readout": "EC50",
    "test value": "0.584 µM (active)"
  },
  {
    "compound": "Cc1ccc(Nc2nc(-c3c(C)nc4ccccn34)cs2)cc1",
    "experimental readout": "EC50",
    "test value": "< 0.1 µM (active)"
  },
  {
    "compound": "CO/C(O)=C1\\C(C)=Nc2nnnn2C1c1cc(OC)ccc1OC (stereo not drawn)",
    "experimental readout": "EC50",
    "test value": "> 120 µM (not active)"
  },
  {
    "compound": "CC(=O)Nc1nc2ccccc2n1CCOc1ccccc1Cl",
    "experimental readout": "EC50",
    "test value": "16.7 µM (active)"
  },
  {
    "compound": "CC(C)CCn1nc(C(=O)Nc2nc3c(s2)CCCC3)c2ccccc2c1=O",
    "experimental readout": "EC50",
    "test value": "16.9 µM (active)"
  }
]
